assay: pharmokinetic study, IV and oral; type: in vivo, mice; details: mouse, plasma, iv, 3 mg/kg; read-out: t½ (converted)
recorded.endpoint: half-life (h)
Quick note: give the figure in h, leave out the unit.

Would you kindly share the measured half-life for `Cc1c(C(=O)C(N)=O)c2c(OCC(=O)O)cccc2n1Cc1ccccc1-c1ccccc1` ?
1.03

---

test: pharmokinetic study, IV and oral; type: in vivo, mice; conditions: mouse, plasma, iv, 3 mg/kg
recorded.endpoint: Cmax (ng/mL)
Quick note: give the figure in ng/mL, leave out the unit.

Would you kindly share the measured Cmax for `Cc1c(C(=O)C(N)=O)c2c(OCC(=O)O)cccc2n1Cc1ccccc1-c1ccccc1` ?
3170

---

assay: pharmokinetic study, IV and oral; format: in vivo, mice; settings: mouse, plasma; oral, 30 mg/kg; read-out: t½ (converted)
recorded.endpoint: half-life (h)
Quick note: give the figure in h, leave out the unit.

Would you kindly share the measured half-life for Cc1c(C(=O)C(N)=O)c2c(OCC(=O)O)cccc2n1Cc1ccccc1-c1ccccc1 [ILY-4001] ?
1.25

---

target: Porcine PLA2 IB (Sus scrofa)
Sequence (P00592 23-146): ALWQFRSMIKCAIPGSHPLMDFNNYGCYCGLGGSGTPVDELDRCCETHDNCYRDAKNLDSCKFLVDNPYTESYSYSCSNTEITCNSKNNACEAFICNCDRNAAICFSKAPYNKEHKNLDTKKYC
recorded.endpoint: IC50 (nM)
Quick note: give the figure in nM, leave out the unit.

Would you kindly share the measured IC50 for Cc1c(C(=O)C(N)=O)c2c(OCC(=O)O)cccc2n1Cc1ccccc1-c1ccccc1 [ILY-4001] ?
62

---

assay: pharmokinetic study, IV and oral; assay type: in vivo, mice; conditions: mouse, plasma, iv, 3 mg/kg
recorded.endpoint: Tmax (min)
Quick note: give the figure in min, leave out the unit.

Would you kindly share the measured Tmax for `Cc1c(C(=O)C(N)=O)c2c(OCC(=O)O)cccc2n1Cc1ccccc1-c1ccccc1` ?
4.98

---

assay: pharmokinetic study, IV and oral; type: in vivo, mice; details: mouse, plasma; oral, 30 mg/kg; read-out: AUC 0-24)
recorded.endpoint: AUC(0-t) (ng·h/mL)
Quick note: give the figure in ng·h/mL, leave out the unit.

Would you kindly share the measured AUC(0-t) for `Cc1c(C(=O)C(N)=O)c2c(OCC(=O)O)cccc2n1Cc1ccccc1-c1ccccc1` ?
5950

---

test: pharmokinetic study, IV and oral; format: in vivo, mice; conditions: mouse, plasma; oral, 30 mg/kg
recorded.endpoint: Cmax (ng/mL)
Quick note: give the figure in ng/mL, leave out the unit.

Would you kindly share the measured Cmax for `Cc1c(C(=O)C(N)=O)c2c(OCC(=O)O)cccc2n1Cc1ccccc1-c1ccccc1` ?
2290

---

assay: pharmokinetic study, IV and oral; assay type: in vivo, mice; conditions: mouse, plasma; oral, 30 mg/kg
recorded.endpoint: Tmax (h)
Quick note: give the figure in h, leave out the unit.

Would you kindly share the measured Tmax for Cc1c(C(=O)C(N)=O)c2c(OCC(=O)O)cccc2n1Cc1ccccc1-c1ccccc1 [ILY-4001] ?
1
